// provenance: PubChem BioAssay AID1963829

So I've got a bunch of compounds here, and I need their viability, T/C values.
# System: 935938-334-R-J1-PDC complex spheroid viability;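 note: spheroids exposed to drugs for seven days before viability read; 100% = DMSO vehicle control wells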
# assay-text: Anticancer human tumor 935938-334-R-J1-PDC patient-derived small intestine adenocarcinoma cell line growth inhibition [POLQ]
# measurement-setup: second compound 1 µM; first compound 0.316 µM; stronger effect = lower value
Just the number in %, nothing appended.

Per the record, C#Cc1c(F)ccc2cc(O)cc(-c3ncc4c(N5CC6CCC(C5)N6)nc(OCC56CCCN5CC(F)C6)nc4c3F)c12 (stereo not given) + COC1C(OC(N)=O)C(O)C(Oc2ccc3c(O)c(NC(=O)c4ccc(O)c(CC=C(C)C)c4)c(=O)oc3c2C)OC1(C)C has viability, T/C of 75.8

Looking up COc1cc(C2c3cc4c(cc3C(OC3OC5COC(C)OC5C(O)C3O)C3COC(=O)C23)OCO4)cc(OC)c1O (stereo not given) + Cc1cccc(N(C)C(=O)C2C(O)CCN2c2nc(C)cc(C(F)(F)F)c2C#N)c1 , I see its viability, T/C listed as 61

Entry CCCS(=O)(=O)Nc1ccc(F)c(C(=O)c2c[nH]c3ncc(-c4ccc(Cl)cc4)cc23)c1F + Cc1cccc(N(C)C(=O)C2C(O)CCN2c2nc(C)cc(C(F)(F)F)c2C#N)c1 , viability, T/C reported as 121

Sure, the documented viability, T/C for COc1cccc2c1C(=O)c1c(O)c3c(c(O)c1C2=O)CC(O)(C(=O)CO)CC3OC1CC(N)C(O)C(C)O1 (stereo not given) + COC1C(OC(N)=O)C(O)C(Oc2ccc3c(O)c(NC(=O)c4ccc(O)c(CC=C(C)C)c4)c(=O)oc3c2C)OC1(C)C is 36

Sample COc1cc(C2c3cc4c(cc3C(OC3OC5COC(C)OC5C(O)C3O)C3COC(=O)C23)OCO4)cc(OC)c1O (stereo not given) + Nc1ccc(C#CCN(C(=O)Cc2ncc(C(F)(F)F)cc2C(F)(F)F)c2ccc(F)cc2)nn1 ; viability, T/C observed: 60.3
